target: PDZD7 N-PDZ1ext (Mus musculus); construct: including the N-terminus of the protein (N-PDZ1ext construct; M1-E192); GST (followed by TEV site) (N, cleaved yes); made in house; host or cells: E. coli BL21 DE3; test: NMR titration of N-PDZ1ext with ADGRV1 ligands; assay type: binding, murine; conditions: NMR titration, 25°C; SD over at least ten shifting peaks; read-out: Kd (Peptide)
Sequence (E9Q9W7 1-192): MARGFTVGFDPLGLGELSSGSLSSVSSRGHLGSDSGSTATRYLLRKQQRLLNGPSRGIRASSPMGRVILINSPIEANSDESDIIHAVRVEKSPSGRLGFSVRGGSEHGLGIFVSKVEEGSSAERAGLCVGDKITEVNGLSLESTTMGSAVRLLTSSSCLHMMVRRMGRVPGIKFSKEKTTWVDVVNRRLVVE
Where no end group is shown, it is not given here.
attribute_measured: Kd (µM)
Please state the figure in µM; there is no need to write the unit.

Prompt: Given VELRRIPIADTHL [ADGRV1pbm] , state its recorded Kd.
Response: 270

Entry source: paper PMC9274004
